Hello, the source for this data is patent US20220177508A1, in case you need it.

Tested on: S. aureus MP-12
test protocol: Broth dilution MIC determination (CLSI), S. aureus MP-12
Format: cell-based
study conditions: Staphylococcus aureus, MP12; strain MP-12, broth dilution
Overview of recorded MIC for various compounds

Here's what some known entries look like.
CO[C@]1(C)C[C@@H](C)CN(C)[C@H](C2CN(C(=O)CN(C)C)C2)[C@@H](C)OC(=O)C(C)(C)C(=O)[C@H](C)[C@H]1O[C@@H]1O[C@H](C)C[C@H](N(C)C)[C@H]1O	> 32 µg/mL
CCN(C)[C@H]1CC[C@H]([C@H]2COC(=O)C(C)(C)C(=O)[C@H](C)[C@@H](O[C@@H]3O[C@H](C)C[C@H](N(C)C)[C@H]3O)[C@](C)(OC)C[C@@H](C)CN2C)CC1	> 32 µg/mL

// `CO[C@]1(C)C[C@@H](C)CN(C)[C@H]([C@H]2CCCN(CC(C)C)C2)COC(=O)C(C)(C)C(=O)[C@H](C)[C@H]1O[C@@H]1O[C@H](C)C[C@H](N(C)C)[C@H]1O` : MIC value = 4 to 32 µg/mL
